- TEST_TARGET: native CB1 receptors (Rattus norvegicus, UniProt P20272)
- Sequence (P20272 whole entry): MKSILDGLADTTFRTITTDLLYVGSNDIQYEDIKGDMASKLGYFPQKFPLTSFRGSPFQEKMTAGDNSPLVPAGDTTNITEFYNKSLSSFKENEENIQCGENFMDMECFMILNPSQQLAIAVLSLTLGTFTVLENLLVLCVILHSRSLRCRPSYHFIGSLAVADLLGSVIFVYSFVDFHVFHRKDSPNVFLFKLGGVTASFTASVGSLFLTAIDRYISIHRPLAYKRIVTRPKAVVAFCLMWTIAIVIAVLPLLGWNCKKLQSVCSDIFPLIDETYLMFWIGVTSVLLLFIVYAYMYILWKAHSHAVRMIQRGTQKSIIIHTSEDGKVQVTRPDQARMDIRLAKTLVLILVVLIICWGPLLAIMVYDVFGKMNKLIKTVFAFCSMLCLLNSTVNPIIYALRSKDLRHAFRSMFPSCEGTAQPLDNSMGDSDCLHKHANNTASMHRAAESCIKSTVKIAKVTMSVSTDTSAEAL
- ASSAY_REMARKS: CB1 receptor rat binding assay ([3H]SR141716A, rat brain membranes)
- MEASUREMENT_SETUP: rat brain membranes, [3H]SR141716A; read-out: Binding rat pKi (converted)
QUANTITY_KIND: Ki (nM)
Number only, in nM; omit the unit.

**Q:** Fill in the blank: the reported Ki of CC(NC(=O)c1ccc2c(c1)N=C(c1ccccc1F)c1ccccc1S2)c1ccccc1 (stereo not shown) [drawing 1422] is ____.
**A:** 39.8

**Q:** Reported Ki, compound CCCCNC(=O)c1ccc2c(c1)N=C(c1ccc(Cl)c(F)c1)c1ccccc1S2 [drawing 1274] : ____
**A:** 2

**Q:** Quick check: Ki of O=C(NCc1ccc(F)cc1)c1ccc2c(c1)N=C(c1ccc(Cl)cc1)c1ccccc1S2(=O)=O [drawing 1316] ?
**A:** 25.1

**Q:** Reported Ki, compound O=C(NCc1cccs1)c1ccc2c(c1)N=C(c1ccccn1)c1ccccc1S2 [drawing 1381] : ____
**A:** 31.6

###

- ASSAY_REMARKS: in vitro
- MEASUREMENT_SETUP: human, microsomes, pH 7.4
QUANTITY_KIND: microsomal CLint at 1 μM (µL/min/mg)
Please respond with the number in µL/min/mg and leave the unit unwritten.

# example entries with known answers
COMPOUND	microsomal CLint at 1 μM (µL/min/mg)
O=C(NN1CCCCC1)c1ccc2c(c1)N=C(c1ccc(Cl)s1)c1ccccc1S2 [drawing 1660]	32
CC(C)CNC(=O)c1ccc2c(c1)N=C(c1ccc(Cl)cc1)c1ccccc1S2 [drawing 1759]	12

**Q:** Reported microsomal CLint at 1 μM for O=C(NCc1ccco1)c1ccc2c(c1)N=C(c1cccc(F)c1)c1ccccc1S2 [drawing 1754] : what is it?
**A:** 68

###

- ASSAY_REMARKS: Clearance study, liver microsomes (human)
- MEASUREMENT_SETUP: pH 7.4
QUANTITY_KIND: microsomal CLint at 1 μM (µL/min/mg)
Lab book: enter the figure in µL/min/mg, no units written.

COMPOUND	microsomal CLint at 1 μM (µL/min/mg)
O=C(NCc1cccc(Cl)c1)c1ccc2c(c1)N=C(c1cccc(Cl)c1)c1cc(F)ccc1S2 [drawing 1805]	10
O=C(NC1CCCCC1)c1ccc2c(c1)N=C(c1cccc(F)c1)c1ccccc1S2 [drawing 1757]	29
O=C(NCc1ccccc1)c1ccc2c(c1)N=C(c1cccc(Br)c1)c1ccccc1S2	4

Now look at this entry.
**Q:** I'd like to know its microsomal CLint at 1 μM. The compound in question is CC(CNC(=O)c1ccc2c(c1)N=C(c1ccc(Cl)cc1)c1ccccc1S2)c1ccccc1 (stereo not shown) [drawing 1743]
**A:** 62

###

- ASSAY_REMARKS: in vitro
- MEASUREMENT_SETUP: rat, microsomes, pH 7.4
Binary label based on microsomal CLint at 1 μM with cut-off 100 µL/min/mg: below gives class 1, not below gives class 0.

Example cases with answers are listed next.
COMPOUND	CLASS
O=C(NCCCc1ccccc1)c1ccc2c(c1)N=C(c1ccc(Cl)cc1)c1ccccc1S2 [drawing 1680]	class 0
O=C(NN1CCCCC1)c1ccc2c(c1)N=C(c1ccc(F)cc1)c1ccccc1S2 [drawing 1685]	class 1
O=C(NN1CCCCC1)c1ccc2c(c1)N=C(c1ccc(Cl)s1)c1ccccc1S2 [drawing 1660]	class 0
O=C(NCc1ccccc1Cl)c1ccc2c(c1)N=C(c1ccc(Cl)cc1)c1ccccc1S2 [drawing 1782]	class 1
CC(C)CNC(=O)c1ccc2c(c1)N=C(c1ccc(Br)cc1)c1ccccc1S2 [drawing 1791]	class 0
COc1cccc(C2=Nc3cc(C(=O)NC4CCC(F)(F)CC4)ccc3Sc3ccccc32)n1 [drawing 1673]	class 0
O=C(NCCc1ccccc1)c1ccc2c(c1)N=C(c1cccc(Cl)c1)c1ccccc1S2 [drawing 1763]	class 0

Switching to the query record.
**Q:** Dear colleague, could you confirm whether microsomal CLint at 1 μM of CC(C)CNC(=O)c1ccc2c(c1)N=C(c1ccc(Cl)cc1)c1ccccc1S2 [drawing 1759] falls below 100 µL/min/mg? Thanks.
**A:** class 1
